All figures here come from paper PMC1179735.

- subject of test: T1, indolicidin (Bos taurus (bovine; synthetic peptide), UniProt P33046)
- T1 chain: ILPWKWPWWPWRR
- assay remarks: SPR
Entries and their measured pKd follow.
pKd (log units): -log10 of the concentration in mol/L.

Look over these answered cases.
binder	pKd
CGTGTGTGTC (ssDNA) [ss[GT]]	3.94
CGCGGCGGCT (ssDNA) [ss[GC] (ss[CG] in Table 2)]	2.82
CATAATATTC (ssDNA) [ss[AT]]	2.68

Now consider a different binder.
[in] Data request, read-out pKd, for CAGAGAGAGT (ssDNA) [ss[AG]]
[out] 2.61
